System: SEM cells;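 also: ALL cell lines in 384-well plates, five doses spanning 10,000-fold, each plate scaled between vehicle and 100 µmol/L benzalkonium chloride controls, sDSS an adapted area-under-curve metric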
Protocol Summary: selective drug sensitivity score (sDSS, relative to normal bone marrow) (sDSS (score)); higher = more potent and effective on the cell line relative to normal bone marrow cells
Condition Summary: 72 h
Would you mind telling me the reported selective drug sensitivity score of each entry?

// solved cases for selective drug sensitivity score follow
[[record]]
compound = "CC(C)NC[C@@H](C(=O)N1CCN(c2ncnc3c2[C@H](C)C[C@H]3O)CC1)c1ccc(Cl)cc1 [Ipatasertib] (top concentration 10000 nM)"
result = 3.3

[[record]]
compound = "CC(=O)[C@]1(O)Cc2c(O)c3c(c(O)c2[C@@H](O[C@H]2C[C@H](N)[C@H](O)[C@H](C)O2)C1)C(=O)c1ccccc1C3=O [Idarubicin] (top concentration 1000 nM)"
result = 6.74

[[record]]
compound = "Cn1cc(C2=C(c3cn(C4CCN(Cc5ccccn5)CC4)c4ccccc34)C(=O)NC2=O)c2ccccc21 [Enzastaurin] (top concentration 10000 nM)"
result = 6.76

[[record]]
compound = "CN(C)Cc1c(C(=O)NCCOc2ccc(C(=O)NO)cc2)oc2ccccc12 [Abexinostat] (top concentration 10000 nM)"
result = 5.46

[[record]]
compound = "Nc1nc2[nH]cc(CCc3ccc(C(=O)N[C@@H](CCC(=O)O)C(=O)O)cc3)c2c(=O)[nH]1 [Pemetrexed] (top concentration 10000 nM)"
result = 25.6


Dear colleague, could you please provide selective drug sensitivity score for the compounds listed below?
1. CC(C)N(C[C@H]1O[C@@H](n2cnc3c(N)ncnc32)[C@H](O)[C@@H]1O)[C@H]1C[C@@H](CCc2nc3cc(C(C)(C)C)ccc3[nH]2)C1 [Pinometostat] (top concentration 1000 nM)
2. Cc1cnc(Nc2ccc(OCCN3CCCC3)cc2)nc1Nc1cccc(S(=O)(=O)NC(C)(C)C)c1 [Fedratinib] (top concentration 10000 nM)
3. Cc1cn(-c2cc(NC(=O)c3ccc(C)c(Nc4nccc(-c5cccnc5)n4)c3)cc(C(F)(F)F)c2)cn1 [Nilotinib] (top concentration 10000 nM)
4. CC(=O)c1cnc2ccc(-c3cc(Cl)c(O)c(Cl)c3)nc2c1N[C@H]1CC[C@H](CN(C)C)CC1 [OTS167] (top concentration 1000 nM)
5. FC(F)(F)c1ccc(/C=C/c2nc(COc3ccc(CCCCn4ccnn4)cc3)co2)cc1 [Mubritinib] (top concentration 1000 nM)
6. CN(C)CC#Cc1ccc(OCCCc2sc(N3CCc4cccc(C(=O)Nc5nc6ccccc6s5)c4C3)nc2C(=O)O)c(F)c1 (top concentration 10000 nM)

1. 0
2. 2.74
3. 4.9
4. 0.58
5. 6.56
6. -0.24
